I'd appreciate it if you could supply melting point values for the items below.

CCCOC(C)c1ccc2[nH]c3cnc(C(=O)OCC)c(COC)c3c2c1 (stereo not given)	189 to 190 °C
Nc1ccc(Sc2cnc3cc(Cl)ccc3n2)cc1	144 to 147 °C
CC(=O)NCC=C1CCc2ccc3nc(C)sc3c21	184 to 186 °C
O=C(O)c1cccc(C=CC(=O)c2ccccc2)c1	198 to 201 °C
Cc1c(NC(=O)c2ccc(OC[C@@H]3CCCO3)cc2)ccc2cc(CN3CCC(C)(O)CC3)cnc12	169 to 174 °C
N#CC1=C(C2CCCCC2)Nc2n[nH]cc2C1c1cccc2nonc12 (stereo not given)	210 °C
CCN(CC)CCN(C)CCC1CCCCN1C(=O)N1c2ccccc2NC(=O)c2csc(C)c21 (stereo not given)	131 to 133 °C
CCOc1nc(NCCN2CCCC2)nc(Nc2ccc(F)c(Cl)c2)n1	111 to 113 °C

Your task in this section: give melting point for each listed record.
1. O=C1C=CC(=O)C(CC(Cl)(Cl)Cl)=C1
2. CCCOCCOc1ccc(Oc2ccc3c(c2)C=C(C(=O)O)CCS3(=O)=O)cc1OCC

## Result
1. 115 °C
2. 116 to 118 °C

====

I'd appreciate it if you could supply melting point values for the items below.

Study these solved cases before continuing.
COc1cc(NCCN(C)Cc2ccccc2)ccc1C(N)=O	153 to 155 °C
CC(C)OC(=O)Nc1ccc(Cl)c(C(=O)OC(C)C)c1	108 to 109 °C
C=C(C)COc1ccc(C=CC(=O)OCCCC)cc1	32 to 33 °C
O=C(OCC(O)CO)c1ccc(C=Cc2csc3ccccc23)s1 (stereo unspecified)	102 to 104 °C
COC(=O)c1cc(O)n[nH]1	229 to 231 °C

Consider the record given below.
## Task For the compound shown here, O=c1oc2ccc(Cc3ccccc3)cc2c(O)c1CCCOc1ccccc1 , give the reported melting point.
## Result 149 to 150 °C

====

I'd appreciate it if you could supply melting point values for the items below.

CC1(C)C(C(=O)O)C1C(O)C(F)(Cl)Cl (stereo unspecified)	142 °C

Your task in this section: give melting point for each listed record.
1. CCOC(=O)c1ccc(N(CC)CCc2ccccc2OCc2ccccc2)cc1
2. O=C(O)c1cnc2n(c1=O)CCc1ccccc1-2
3. CC1(C=O)CC1(c1ccc(F)cc1)c1ccc(F)cc1 (stereo unspecified)
4. NNc1ccnc2c(NC(=O)c3c(Cl)cccc3Cl)cccc12
5. CN(CCN(C)c1ccc([N+](=O)[O-])cc1)c1ccncc1
6. N#CC12CC(c3ccccc31)c1ccccc12
7. CCc1cc2c(s1)-n1c(C)nnc1C(CCCCC(=O)O)N=C2c1ccc(Cl)cc1 (stereo unspecified)
8. CC(CCCO)C1CCC2C3CC=C4CC(OC5CCCCO5)CCC4(C)C3CCC12C (stereo unspecified)

## Result
["76 °C", "215 to 217 °C", "110 to 113 °C", "204 to 206 °C", "126 to 127 °C", "120 to 123 °C", "257 to 260 °C", "130 to 131 °C"]

Your task in this section: give melting point for each listed record.
1. CSC[C@H](NCc1cc(Br)ccc1N)C(=O)O
2. CC(C)CCCC(C)CC(=O)Oc1ccc(-c2ccc(OC(=O)CC(C)CCCC(C)C)cc2)cc1 (stereo unspecified)
3. CCC(CC)N1CCNc2c1cc(C)nc2Oc1c(C)cc(C)cc1C
4. Cc1cccc(NC(=O)NCC(=O)N(CC(=O)N2CCC3(CC2)OCCO3)c2ccccc2)c1
5. O=C(O)C1(CC#CBr)CCCCC1
6. CC(C)(C)c1cc2ncnn2nc1OCCN1CCC(OC(c2ccccc2)c2ccccc2)CC1

## Result
1. 228 °C
2. 72 to 73 °C
3. 138 to 140 °C
4. 130 °C
5. 98 °C
6. 133 to 135 °C

Your task in this section: give melting point for each listed record.
1. Cc1cccc2c1CCN=C2c1ccc(F)cc1
2. COC(=O)N1C2C3C=CC(C3OC(C)(C)C)C2N1C(=O)OC (stereo unspecified)
3. COCOc1c(C)cc(-c2ccc(C(=O)NCCOc3ccc(CC(Oc4ccccc4)C(=O)O)cc3)cc2)cc1C (stereo unspecified)
4. Oc1c(S)cc(I)cc1I

## Result
["71 to 71.5 °C", "86 °C", "142 to 143 °C", "178 to 180 °C"]

Your task in this section: give melting point for each listed record.
1. CN(C)Cc1cccc2nc3n(c12)CCCN3c1ccc(Cl)cc1Cl
2. CC(C)(C)c1cc(-c2nnc(NS(C)(=O)=O)s2)cc(C(C)(C)C)c1O

## Result
1: 158 to 159 °C; 2: 293 to 294 °C

====

I'd appreciate it if you could supply melting point values for the items below.

Study these solved cases before continuing.
O=c1[nH]c2nc(C(F)(F)F)cc(C(F)(F)F)c2cc1-c1ccncc1	250 to 270 °C
COc1ccc2oc3ccccc3c(=O)c2c1	128 to 130 °C
Cc1ccc2[nH]c(-c3ccc(S(C)(=O)=O)cc3)c(-c3ccccc3)c2c1	245 to 247 °C
O=C(Cc1cccnn1)c1ccc(F)cc1F	116 to 118 °C

Consider the record given below.
## Task For the compound shown here, COc1ccccc1CNc1cccc(-c2ccnc3c(C(=O)c4cccs4)cnn23)c1 , give the reported melting point.
## Result 138 to 140 °C

====

test_readout: melting point

CCc1ccc(Nc2nc3cc(NC(=O)c4ccccc4Nc4cccc(C(F)(F)F)c4)ccc3o2)cc1	174 to 176 °C
O=[N+]([O-])c1cc(C(F)(F)F)c(Cl)c([N+](=O)[O-])c1Nc1ncc(Cl)cc1Cl	64 to 65 °C
CC(C)Cn1c2c(c(=O)n(C)c1=O)C(=O)C(=Cc1cccnc1)S2	215 to 216 °C

Your task in this section: give melting point for each listed record.
1. COC(=O)c1nc(C)c(-c2ccnc3ccccc23)s1
2. CCOC(=O)C(C)=NNc1ccc(C(O)(C(F)(F)F)C(F)(F)F)cc1
3. NC(=O)c1c(Cl)c(-c2ccccc2)n2c1CN(C(=O)CCC1CCCCC1)CC2
4. COc1ccc(C(C)(O)c2sc(C)nc2C)cc1 (centres undefined)
5. O=S1(=O)CC2(CCCCC2)[C@@H](O)[C@H](c2ccccc2)c2ccccc21 (relative stereo)
6. O=C1Nc2cc(C(F)(F)F)cc(C(F)(F)F)c2C1=O

## Result
["116 to 117 °C", "167 to 168 °C", "181 to 182 °C", "114 to 116 °C", "99 to 100 °C", "200 to 203 °C"]

====

I'd appreciate it if you could supply melting point values for the items below.

COC(=O)c1ccc(C(F)F)nc1C	135 to 136 °C

Your task in this section: give melting point for each listed record.
1. CCCC(=O)N(Cc1ccc(OC(F)(F)F)cc1)c1cc(Cl)cc(-c2nnn[nH]2)c1
2. COc1ccc(-c2cn(C)cc(-c3cccc(C(F)(F)F)c3)c2=O)cc1

## Result
179 °C
160 to 162 °C

Your task in this section: give melting point for each listed record.
1. Cc1cccc(NC(=O)NC2N=C(c3ccccc3)c3ccsc3N(C)C2=O)c1 (stereo not given)
2. COc1ccc(C2CNC(=O)N2C)cc1OC1CC2CCC1C2 (stereo not given)

## Result
1: 128 to 130 °C; 2: 142 to 144 °C

====

I'd appreciate it if you could supply melting point values for the items below.

Study these solved cases before continuing.
COc1ccc(COc2cccc(C(=O)Nc3ccc(S(C)(=O)=O)cc3)c2)cc1	173 to 174 °C
CN1C(=O)COc2cc(S(=O)Cc3ccccc3)ccc21 (stereo not given)	133 to 135 °C

Your task in this section: give melting point for each listed record.
1. CCCOC1=CC(=O)C(C(=O)OCC)C(c2ccc(C)cc2)C1 (stereo not given)
2. Nc1ccc(-c2ccncc2)cn1

## Result
["106 to 107 °C", "192 to 195 °C"]

Your task in this section: give melting point for each listed record.
1. OC(COc1ccc2nncn2n1)CN1CCN(C(c2ccccc2)c2ccccc2)CC1 (stereo not given)
2. Cc1ccc(CN2C(=O)C(C)Oc3c(C(=O)NC4CN5CCC4CC5)cc(Cl)cc32)cc1 (stereo not given)
3. CC(=O)N1CCSc2cccc(Cl)c2C1
4. Cc1nn(-c2ccccn2)c2nc3ccccc3c(Cl)c12

## Result
["95 to 97 °C", "156 °C", "79 to 81 °C", "157 to 159 °C"]

Your task in this section: give melting point for each listed record.
1. CCCCCc1ccc(-c2ccc(C(=O)O)cc2)cc1
2. CCOC(=O)Cn1cc(Cc2nc3c(F)c(F)cc(F)c3s2)c2ccccc21
3. O=C(OC1CCN(Cc2ccccc2)CC1)c1ccc(Br)cc1
4. COC(Nc1ccccc1)(OC)C1(Br)C=CN=C(C(=O)c2ccccc2)C1 (stereo not given)
5. O=C(O)CCCCCCCC(=O)Nc1cc(Cl)ccc1O
6. COc1cc2nc(N3CCN(C(=O)C=Cc4ccoc4)CC3)nc(N)c2cc1OC

## Result
1: 174 °C; 2: 110 to 111 °C; 3: 71 to 72 °C; 4: 189 to 190 °C; 5: 117 to 118 °C; 6: 252 to 253 °C

Your task in this section: give melting point for each listed record.
1. COc1ccc(-c2cc(=Nc3c(C)cc(C)cc3C)n(C)c(SC)n2)cc1OC
2. CNC(=O)CC1CN=C(c2cc3cc(Oc4ccc(S(C)(=O)=O)nc4)cc(OC4CCOCC4)c3[nH]2)S1 (stereo not given)
3. CC(O)c1sccc1S(=O)(=O)N(C)c1cccc2cc(-c3nccs3)[nH]c12 (stereo not given)
4. COc1cc(OC)c(/C=C/S(=O)(=O)CS(=O)(=O)/C=C/c2c(OC)cc(OC)cc2OC)c(OC)c1
5. Cn1nc(-c2cc3c(cc2F)NC(=O)CO3)c(Cl)c1C(F)(F)F
6. COc1cc(OC)nc(C2(OC)OC(=O)c3c(Cl)cccc32)n1 (stereo not given)

## Result
1. 172 to 173 °C
2. 143 to 144 °C
3. 193 °C
4. 140 to 142 °C
5. 242 °C
6. 180 to 183 °C

Sourced from a melting point compilation (Tetko et al.; mined from patent text by program, amines drawn as free bases though some values may be those of a salt)
